These data points were gathered from PubChem BioAssay (NCI).

Measured TGI by item
- System: COLO 205 colon
- test name: NCI tumour cell line growth inhibition, 48 h

[
  {
    "compound": "C#CC[C@H](c1nc2cc(Cl)ccc2c(=O)n1Nc1ccccc1)N(CCCN)C(=O)c1cccc(Cl)c1F",
    "assay target": "COLO 205 colon",
    "quantity": "TGI",
    "reported result": "0.868 µM"
  }
]

Problem: Fetch value of TGI on COLO 205 colon for O=C(O)c1cc2c(cc1S(=O)(=O)O)C1C(C3C2C2(Cl)C(Cl)=C(Cl)C3(Cl)C2(Cl)Cl)C2(Cl)C(Cl)=C(Cl)C1(Cl)C2(Cl)Cl (centres undefined) .
Solution: > 100 µM

Problem: Fetch value of TGI on COLO 205 colon for Cn1c(=O)c2[nH]c(COCc3nc4c([nH]3)c(=O)n(C)c(=O)n4C)nc2n(C)c1=O .
Solution: > 100 µM
